Give hemolysis at 60 min, 400 µg/mL for every item shown.
MEASUREMENT_PROTOCOL: Hemolytic activity
Type: cell-based, human
SETTINGS: human, human red blood cells (washed, 1% suspension), 37 °C, 1% red blood cell suspension
Param answer (str): number followed by unit.

C[C@@H](c1ccccc1)N(CCC(N)=O)C(=O)[C@H](CCCCN)NC(=O)CCN(C(=O)[C@H](CCCCNC(=N)N)NC(=O)CCN(C(=O)[C@H](CCCCN)NC(=O)CCN(C(=O)[C@H](CCCCNC(=N)N)NC(=O)CCN(C(=O)[C@H](CCCCN)NC(=O)CCN(C(=O)[C@H](CCCCNC(=N)N)NC(=O)CNCCCNCCCCNCCCN)[C@@H](C)c1ccccc1)[C@@H](C)c1ccccc1)[C@@H](C)c1ccccc1)[C@@H](C)c1ccccc1)[C@@H](C)c1ccccc1 [Compound 3, SpermineAc-[hArg-βNspe-Lys-βNspe]3-NH2] ... 0.6%

(Q) Write down hemolysis at 60 min, 400 µg/mL measured for item NCCCC[C@H](NC(=O)CCN(Cc1ccc(F)cc1)C(=O)[C@H](CCCCN)NC(=O)CCN(Cc1ccc(F)cc1)C(=O)[C@H](CCCCN)NC(=O)CCN(Cc1ccc(F)cc1)C(=O)[C@H](CCCCN)NC(=O)CCN(Cc1ccc(F)cc1)C(=O)[C@H](CCCCN)NC(=O)CCN(Cc1ccc(F)cc1)C(=O)[C@H](CCCCN)NC(=O)CCN(Cc1ccc(F)cc1)C(=O)[C@H](CCCCN)NC(=O)CCN(Cc1ccc(F)cc1)C(=O)[C@@H](N)CCCCN)C(=O)N(CCC(N)=O)Cc1ccc(F)cc1 [Compound 7, H-[Lys-βNPhe(F)]8-NH2]
(A) 1.5%

Sourced from paper PMC8197855
